System: OVCAR-8 complex spheroid, growth inhibition
Test: Anticancer human tumor OVCAR-8 cell line growth inhibition [Asc];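 also: spheroids exposed to agents for 7 days before readout; percent viability relative to DMSO vehicle wells taken as 100%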
Details: second compound 0.316 µM; first compound 1 µM; stronger effect = lower value
Give measured viability, T/C for each item. Keep answers brief.
Please reply with the bare figure in % and do not write the unit itself.

Sample CCN1CCN(Cc2ccc(Nc3ncc(F)c(-c4cc(F)c5nc(C)n(C(C)C)c5c4)n3)nc2)CC1 + Cc1c(S(C)(=O)=O)c(-c2cc(F)cc(N3CCN(c4ccc(NS(=O)(=O)c5ccc(NC(CCN6CCC(C(=O)OCCCP(=O)(O)O)CC6)CSc6ccccc6)c(S(=O)(=O)C(F)(F)F)c5)cc4)CC3)c2)c(-c2ccc(Cl)cc2)n1C(C)C , system: OVCAR-8 complex spheroid, growth inhibition. Its viability, T/C is 121

Sample CCN1CCN(Cc2ccc(Nc3ncc(F)c(-c4cc(F)c5nc(C)n(C(C)C)c5c4)n3)nc2)CC1 + CNC(C)C(=O)NC1CN(S(=O)(=O)c2cccc(S(=O)(=O)N3CCC4CCC(C(=O)NC(c5ccccc5)c5ccccc5)N4C(=O)C(NC(=O)C(C)NC)C3)c2)CCC2CCC(C(=O)NC(c3ccccc3)c3ccccc3)N2C1=O , system: OVCAR-8 complex spheroid, growth inhibition. Its viability, T/C is 111

Sample C#Cc1c(F)ccc2cc(O)cc(-c3ncc4c(N5CC6CCC(C5)N6)nc(OCC56CCCN5CC(F)C6)nc4c3F)c12 (configuration not stated) + Cc1c(S(C)(=O)=O)c(-c2cc(F)cc(N3CCN(c4ccc(NS(=O)(=O)c5ccc(NC(CCN6CCC(C(=O)OCCCP(=O)(O)O)CC6)CSc6ccccc6)c(S(=O)(=O)C(F)(F)F)c5)cc4)CC3)c2)c(-c2ccc(Cl)cc2)n1C(C)C , system: OVCAR-8 complex spheroid, growth inhibition. Its viability, T/C is 105

Sample O=C(c1cc(Cc2n[nH]c(=O)c3ccccc23)ccc1F)N1CCN(C(=O)C2CC2)CC1 + Cc1c(S(C)(=O)=O)c(-c2cc(F)cc(N3CCN(c4ccc(NS(=O)(=O)c5ccc(NC(CCN6CCC(C(=O)OCCCP(=O)(O)O)CC6)CSc6ccccc6)c(S(=O)(=O)C(F)(F)F)c5)cc4)CC3)c2)c(-c2ccc(Cl)cc2)n1C(C)C , system: OVCAR-8 complex spheroid, growth inhibition. Its viability, T/C is 110

Sample O=C(c1cc(Cc2n[nH]c(=O)c3ccccc23)ccc1F)N1CCN(C(=O)C2CC2)CC1 + CNC(C)C(=O)NC1CN(S(=O)(=O)c2cccc(S(=O)(=O)N3CCC4CCC(C(=O)NC(c5ccccc5)c5ccccc5)N4C(=O)C(NC(=O)C(C)NC)C3)c2)CCC2CCC(C(=O)NC(c3ccccc3)c3ccccc3)N2C1=O , system: OVCAR-8 complex spheroid, growth inhibition. Its viability, T/C is 82.4

Sample O=C(c1ccc(F)c(F)c1Nc1ccc(I)cc1F)N1CC(O)([C@@H]2CCCCN2)C1 + CNC(C)C(=O)NC1CN(S(=O)(=O)c2cccc(S(=O)(=O)N3CCC4CCC(C(=O)NC(c5ccccc5)c5ccccc5)N4C(=O)C(NC(=O)C(C)NC)C3)c2)CCC2CCC(C(=O)NC(c3ccccc3)c3ccccc3)N2C1=O , system: OVCAR-8 complex spheroid, growth inhibition. Its viability, T/C is 2.09

Sample C=CC(=O)N1CCN(c2nc(=O)n(-c3c(C)ccnc3C(C)C)c3nc(-c4c(O)cccc4F)c(F)cc23)C(C)C1 (configuration not stated) + CNC(C)C(=O)NC1CN(S(=O)(=O)c2cccc(S(=O)(=O)N3CCC4CCC(C(=O)NC(c5ccccc5)c5ccccc5)N4C(=O)C(NC(=O)C(C)NC)C3)c2)CCC2CCC(C(=O)NC(c3ccccc3)c3ccccc3)N2C1=O , system: OVCAR-8 complex spheroid, growth inhibition. Its viability, T/C is 69.4

Sample C=C(F)C(=O)N1CCN(c2nc(OCC3CCCN3C)nc3c2CCN(c2cccc4cccc(Cl)c24)C3)CC1CC#N (configuration not stated) + Cc1c(S(C)(=O)=O)c(-c2cc(F)cc(N3CCN(c4ccc(NS(=O)(=O)c5ccc(NC(CCN6CCC(C(=O)OCCCP(=O)(O)O)CC6)CSc6ccccc6)c(S(=O)(=O)C(F)(F)F)c5)cc4)CC3)c2)c(-c2ccc(Cl)cc2)n1C(C)C , system: OVCAR-8 complex spheroid, growth inhibition. Its viability, T/C is 113

Sample O=C(c1ccc(F)c(F)c1Nc1ccc(I)cc1F)N1CC(O)([C@@H]2CCCCN2)C1 + Cc1c(S(C)(=O)=O)c(-c2cc(F)cc(N3CCN(c4ccc(NS(=O)(=O)c5ccc(NC(CCN6CCC(C(=O)OCCCP(=O)(O)O)CC6)CSc6ccccc6)c(S(=O)(=O)C(F)(F)F)c5)cc4)CC3)c2)c(-c2ccc(Cl)cc2)n1C(C)C , system: OVCAR-8 complex spheroid, growth inhibition. Its viability, T/C is 139

Sample COc1c(OCCCN2CCOCC2)ccc2c3n(c(=NC(=O)c4cnc(N)nc4)nc12)CCN3 + CNC(C)C(=O)NC1CN(S(=O)(=O)c2cccc(S(=O)(=O)N3CCC4CCC(C(=O)NC(c5ccccc5)c5ccccc5)N4C(=O)C(NC(=O)C(C)NC)C3)c2)CCC2CCC(C(=O)NC(c3ccccc3)c3ccccc3)N2C1=O , system: OVCAR-8 complex spheroid, growth inhibition. Its viability, T/C is 16

Sample C=C(F)C(=O)N1CCN(c2nc(OCC3CCCN3C)nc3c2CCN(c2cccc4cccc(Cl)c24)C3)CC1CC#N (configuration not stated) + CNC(C)C(=O)NC1CN(S(=O)(=O)c2cccc(S(=O)(=O)N3CCC4CCC(C(=O)NC(c5ccccc5)c5ccccc5)N4C(=O)C(NC(=O)C(C)NC)C3)c2)CCC2CCC(C(=O)NC(c3ccccc3)c3ccccc3)N2C1=O , system: OVCAR-8 complex spheroid, growth inhibition. Its viability, T/C is 35.4

Sample C#Cc1c(F)ccc2cc(O)cc(-c3ncc4c(N5CC6CCC(C5)N6)nc(OCC56CCCN5CC(F)C6)nc4c3F)c12 (configuration not stated) + CNC(C)C(=O)NC1CN(S(=O)(=O)c2cccc(S(=O)(=O)N3CCC4CCC(C(=O)NC(c5ccccc5)c5ccccc5)N4C(=O)C(NC(=O)C(C)NC)C3)c2)CCC2CCC(C(=O)NC(c3ccccc3)c3ccccc3)N2C1=O , system: OVCAR-8 complex spheroid, growth inhibition. Its viability, T/C is 89.9

###

System: OVCAR-8 complex spheroid, growth inhibition
Assay: Anticancer human tumor OVCAR-8 cell line growth inhibition [Asc];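 also: spheroids exposed to agents for 7 days before readout; percent viability relative to DMSO vehicle wells taken as 100%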
Conditions: second compound 0.0316 µM; first compound 0.0316 µM; stronger effect = lower value
property: viability, T/C (%)
Please reply with the bare figure in % and do not write the unit itself.

Per the record, C=CC(=O)N1CCN(c2nc(=O)n(-c3c(C)ccnc3C(C)C)c3nc(-c4c(O)cccc4F)c(F)cc23)C(C)C1 (stereo unspecified) + Cc1c(S(C)(=O)=O)c(-c2cc(F)cc(N3CCN(c4ccc(NS(=O)(=O)c5ccc(NC(CCN6CCC(C(=O)OCCCP(=O)(O)O)CC6)CSc6ccccc6)c(S(=O)(=O)C(F)(F)F)c5)cc4)CC3)c2)c(-c2ccc(Cl)cc2)n1C(C)C has viability, T/C of 109

Per the record, C=CC(=O)N1CCN(c2nc(=O)n(-c3c(C)ccnc3C(C)C)c3nc(-c4c(O)cccc4F)c(F)cc23)C(C)C1 (stereo unspecified) + CNC(C)C(=O)NC1CN(S(=O)(=O)c2cccc(S(=O)(=O)N3CCC4CCC(C(=O)NC(c5ccccc5)c5ccccc5)N4C(=O)C(NC(=O)C(C)NC)C3)c2)CCC2CCC(C(=O)NC(c3ccccc3)c3ccccc3)N2C1=O has viability, T/C of 94.3

Per the record, NC1CCC(NC2CC2c2ccccc2)CC1 (stereo unspecified) + Cc1c(S(C)(=O)=O)c(-c2cc(F)cc(N3CCN(c4ccc(NS(=O)(=O)c5ccc(NC(CCN6CCC(C(=O)OCCCP(=O)(O)O)CC6)CSc6ccccc6)c(S(=O)(=O)C(F)(F)F)c5)cc4)CC3)c2)c(-c2ccc(Cl)cc2)n1C(C)C has viability, T/C of 109

Per the record, COc1c(OCCCN2CCOCC2)ccc2c3n(c(=NC(=O)c4cnc(N)nc4)nc12)CCN3 + Cc1c(S(C)(=O)=O)c(-c2cc(F)cc(N3CCN(c4ccc(NS(=O)(=O)c5ccc(NC(CCN6CCC(C(=O)OCCCP(=O)(O)O)CC6)CSc6ccccc6)c(S(=O)(=O)C(F)(F)F)c5)cc4)CC3)c2)c(-c2ccc(Cl)cc2)n1C(C)C has viability, T/C of 128

Per the record, CCN1CCN(Cc2ccc(Nc3ncc(F)c(-c4cc(F)c5nc(C)n(C(C)C)c5c4)n3)nc2)CC1 + CNC(C)C(=O)NC1CN(S(=O)(=O)c2cccc(S(=O)(=O)N3CCC4CCC(C(=O)NC(c5ccccc5)c5ccccc5)N4C(=O)C(NC(=O)C(C)NC)C3)c2)CCC2CCC(C(=O)NC(c3ccccc3)c3ccccc3)N2C1=O has viability, T/C of 84.7

Per the record, CNC(C)C(=O)NC1CN(S(=O)(=O)c2cccc(S(=O)(=O)N3CCC4CCC(C(=O)NC(c5ccccc5)c5ccccc5)N4C(=O)C(NC(=O)C(C)NC)C3)c2)CCC2CCC(C(=O)NC(c3ccccc3)c3ccccc3)N2C1=O (stereo unspecified) + Cc1c(S(C)(=O)=O)c(-c2cc(F)cc(N3CCN(c4ccc(NS(=O)(=O)c5ccc(NC(CCN6CCC(C(=O)OCCCP(=O)(O)O)CC6)CSc6ccccc6)c(S(=O)(=O)C(F)(F)F)c5)cc4)CC3)c2)c(-c2ccc(Cl)cc2)n1C(C)C has viability, T/C of 88.4
